- Protocol Description: Drug level Sprague-Dawley rat cerebrospinal fluid at 10 mg/kg, po after 2 hrs
Measured Endpoint: concentration at 2 h (nM)

(a) O=C(O)c1cn(Cc2ccc(-c3cccnc3)cn2)c2c(F)cccc2c1=O
(b) Cn1cc(-c2ccc(Cn3cc(C(=O)O)c(=O)c4cccc(F)c43)nc2)cn1
(c) O=C(O)c1cn(Cc2ccc(-c3ccc(F)nc3)cn2)c2c(F)cccc2c1=O
Rank descending by concentration at 2 h: all 3 molecules from above. Answer by naming the labels in the order asked.
c, b, a
(c: 97 nM, b: 40 nM, a: 25 nM)

###

- Study System: Muscarinic acetylcholine receptor M1 (Homo sapiens) (UniProt P11229)
- Protocol Description: Potentiation of human muscarinic M1 receptor expressed in CHO cells assessed as effect on acetylcholine-induced calcium mobilization by FLIPR assay at 30 uM
Measured Endpoint: fold change (FC)

Check out these entries, answers already filled in.
Nc1cccc(-c2ccc(Cn3cc(C(=O)O)c(=O)c4cccc(F)c43)nc2)c1 ... 45
O=C(O)c1cn(Cc2ccc(-c3ccccc3)cn2)c2c(F)cccc2c1=O ... 37
CS(=O)(=O)c1ccc(-c2ccc(Cn3cc(C(=O)O)c(=O)c4cccc(F)c43)nc2)cc1 ... 33

(1) Cn1cc(-c2ccc(Cn3cc(C(=O)O)c(=O)c4cccc(F)c43)nc2)cn1
(2) O=C(O)c1cn(Cc2ccc(-c3ccc(F)nc3)cn2)c2c(F)cccc2c1=O
Form: Entry with minimum fold change (FC) (choose one): 1 / 2 # answer = label of selected item
1
(1: 37, 2: 81)

###

- Protocol Description: Plasma concentration in Sprague-Dawley rat at 10 mg/kg, po after 2 hrs
Measured Endpoint: concentration at 2 h (µM)

Here's what some known entries look like.
CS(=O)(=O)c1cccc(-c2ccc(Cn3cc(C(=O)O)c(=O)c4cccc(F)c43)cn2)c1 ... 0.382
Cn1cc(-c2ccc(Cn3cc(C(=O)O)c(=O)c4cccc(F)c43)nc2)cn1 ... 33.3

(1) O=C(O)c1cn(Cc2ccc(-c3ccc(F)nc3)cn2)c2c(F)cccc2c1=O
(2) O=C(O)c1cn(Cc2ccc(-c3cccnc3)cn2)c2c(F)cccc2c1=O
When 1 and 2 are compared, which has the higher number for concentration at 2 h? // respond with label for picked entry
1
(1: 12.8 µM, 2: 2.79 µM)

###

- Protocol Description: Drug level Sprague-Dawley rat brain at 10 mg/kg, po after 2 hrs
Measured Endpoint: concentration at 2 h (nM)

CS(=O)(=O)c1cccc(-c2ccc(Cn3cc(C(=O)O)c(=O)c4cccc(F)c43)cn2)c1 ... 154
Cn1cc(-c2ccc(Cn3cc(C(=O)O)c(=O)c4cccc(F)c43)nc2)cn1 ... 430

(I) O=C(O)c1cn(Cc2ccc(-c3ccc(F)nc3)cn2)c2c(F)cccc2c1=O
(II) O=C(O)c1cn(Cc2ccc(-c3cccnc3)cn2)c2c(F)cccc2c1=O
Consider entries I and II . Which has the numerically lower concentration at 2 h? Pick one and reply with its label.
II
(II: 154 nM, I: 311 nM)

###

- Study System: Muscarinic acetylcholine receptor M1 (Homo sapiens)
- Protocol Description: Allosteric modulation of human muscarinic M1 receptor expressed in CHO cells assessed as effect on acetylcholine-induced calcium mobilization by FLIPR assay
- Assay type: functional, cell-based
Measured Endpoint: IP (nM)

Some entries whose results are on file:
O=C(O)c1cn(Cc2ccc(-c3ccnc(Cl)c3)cn2)c2c(F)cccc2c1=O ... 169
Nc1cccc(-c2ccc(Cn3cc(C(=O)O)c(=O)c4cccc(F)c43)cn2)c1 ... 21
O=C(O)c1cn(Cc2ccc(-c3ccccc3)nn2)c2c(F)cccc2c1=O ... 390

(P) CN(C)c1cccc(-c2ccc(Cn3cc(C(=O)O)c(=O)c4cccc(F)c43)nc2)c1
(Q) O=C(O)c1cn(Cc2ccc(-c3ccc4[nH]ccc4c3)cn2)c2c(F)cccc2c1=O
(R) O=C(O)c1cn(Cc2ccc(-c3cncc(F)c3)cn2)c2c(F)cccc2c1=O
(S) O=C(O)c1cn(Cc2ccc(-c3ccc(F)cc3)nc2)c2c(F)cccc2c1=O
(T) O=C(O)c1cn(Cc2ccc(-c3ccc4[nH]ccc4c3)nn2)c2c(F)cccc2c1=O
Order by IP, ascending. Reply with the item labels sorted in the order that was asked for.
Q, P, S, R, T

###

- Protocol Description: Ratio of drug level in brain to plasma Sprague-Dawley rat at 10 mg/kg, po after 2 hrs
Measured Endpoint: Kp at 2 h

Reference set, count: 2
Cn1cc(-c2ccc(Cn3cc(C(=O)O)c(=O)c4cccc(F)c43)nc2)cn1 ... 0.03
O=C(O)c1cn(Cc2ccc(-c3ccc(F)nc3)cn2)c2c(F)cccc2c1=O ... 0.05

(a) CS(=O)(=O)c1cccc(-c2ccc(Cn3cc(C(=O)O)c(=O)c4cccc(F)c43)cn2)c1
(b) O=C(O)c1cn(Cc2ccc(-c3cccnc3)cn2)c2c(F)cccc2c1=O
Hey, which is lower on measured Kp at 2 h, a or b ? // return label of chosen record
b

###

- Study System: Muscarinic acetylcholine receptor M1 (Homo sapiens) (UniProt P11229)
- Sequence (whole entry): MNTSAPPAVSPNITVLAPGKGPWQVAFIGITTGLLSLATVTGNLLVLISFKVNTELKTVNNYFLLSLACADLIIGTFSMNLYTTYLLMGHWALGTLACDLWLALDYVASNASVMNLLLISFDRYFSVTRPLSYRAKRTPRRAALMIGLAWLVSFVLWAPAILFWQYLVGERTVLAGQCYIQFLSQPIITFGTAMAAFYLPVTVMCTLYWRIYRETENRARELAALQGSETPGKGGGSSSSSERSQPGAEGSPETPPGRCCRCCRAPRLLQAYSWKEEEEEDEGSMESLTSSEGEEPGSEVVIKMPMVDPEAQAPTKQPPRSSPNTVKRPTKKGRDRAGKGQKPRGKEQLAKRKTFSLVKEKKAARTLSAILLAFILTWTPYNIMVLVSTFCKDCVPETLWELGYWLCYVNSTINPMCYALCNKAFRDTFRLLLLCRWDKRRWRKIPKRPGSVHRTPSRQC
- Protocol Description: Allosteric modulation of human muscarinic M1 receptor expressed in CHO cells assessed as effect on acetylcholine-induced calcium mobilization by FLIPR assay relative to 1-Biphenyl-4-ylmethyl-4-oxo-1,4-dihydro-quinoline-3-carboxylic acid
- Assay type: functional, cell-based
Measured Endpoint: Emax (%)

O=C(O)c1cn(Cc2ccc(-c3ccccc3)nc2)c2c(F)cccc2c1=O ... 97
O=C(O)c1cn(Cc2ncc(-c3ccccc3)cn2)c2c(F)cccc2c1=O ... 90
O=C(O)c1cn(Cc2ccc(-c3ccccc3)cn2)c2c(F)cccc2c1=O ... 80
O=C(O)c1cn(Cc2cnc(-c3ccccc3)cn2)c2c(F)cccc2c1=O ... 85
O=C(O)c1cn(Cc2cnc(-c3ccccc3)nc2)c2c(F)cccc2c1=O ... 88
O=C(O)c1cn(Cc2ccc(-c3ccccc3)nn2)c2c(F)cccc2c1=O ... 97

###

- Study System: Muscarinic acetylcholine receptor M1 (Homo sapiens)
- Protocol Description: Allosteric modulation of human muscarinic M1 receptor expressed in CHO cells assessed as effect on acetylcholine-induced calcium mobilization by FLIPR assay
- Type: functional, cell-based
Measured Endpoint: IP (nM)

Completed entries (count: 10):
O=C(O)c1cn(Cc2ccc(-c3ccccc3)cn2)c2c(F)cccc2c1=O ... 153
Nc1cccc(-c2ccc(Cn3cc(C(=O)O)c(=O)c4cccc(F)c43)nc2)c1 ... 21
COc1cccc(-c2ccc(Cn3cc(C(=O)O)c(=O)c4cccc(F)c43)nc2)c1 ... 89
O=C(O)c1cn(Cc2ccc(-c3ccccc3)nc2)c2c(F)cccc2c1=O ... 604
CN(C)c1ccc(-c2ccc(Cn3cc(C(=O)O)c(=O)c4cccc(F)c43)nc2)cn1 ... 82
O=C(O)c1cn(Cc2ccc(-c3cccnc3)cn2)c2c(F)cccc2c1=O ... 370
Nc1ccc(-c2ccc(Cn3cc(C(=O)O)c(=O)c4cccc(F)c43)nc2)cn1 ... 200
CN(C)c1cccc(-c2ccc(Cn3cc(C(=O)O)c(=O)c4cccc(F)c43)cn2)c1 ... 130
O=C(O)c1cn(Cc2ccc(-c3cccnc3)nn2)c2c(F)cccc2c1=O ... 778
CS(=O)(=O)c1ccc(-c2ccc(Cn3cc(C(=O)O)c(=O)c4cccc(F)c43)nc2)cc1 ... 260

(P) O=C(O)c1cn(Cc2ccc(-c3cccs3)cn2)c2c(F)cccc2c1=O
(Q) CC(=O)Nc1ccc(-c2ccc(Cn3cc(C(=O)O)c(=O)c4cccc(F)c43)nc2)cc1
(R) COc1ccc(Cn2cc(C(=O)O)c(=O)c3ccccc32)cc1
Hello, I need these entries ordered by IP, highest reading first. Thanks! Sort the labels as requested; that list is your answer.
R, P, Q
(R: 660 nM, P: 150 nM, Q: 78 nM)

###

- Study System: Muscarinic acetylcholine receptor M1 (Homo sapiens)
- Protocol Description: Allosteric modulation of human muscarinic M1 receptor expressed in CHO cells assessed as effect on acetylcholine-induced calcium mobilization by FLIPR assay
- Type: functional, cell-based
Measured Endpoint: IP (nM)

Check out these entries, answers already filled in.
O=C(O)c1cn(Cc2ccc(-c3ccc(Cl)nc3)nc2)c2c(F)cccc2c1=O ... 169
O=C(O)c1cn(Cc2ccc(-c3ccc(F)nc3)cn2)c2c(F)cccc2c1=O ... 100
O=C(O)c1cn(Cc2cnc(-c3ccccc3)nc2)c2c(F)cccc2c1=O ... 4000
O=C(O)c1cn(Cc2ccc(-c3ccc(F)nc3)nc2)c2c(F)cccc2c1=O ... 202
O=C(O)c1cn(Cc2ccc(-c3ccc(F)cc3)nn2)c2c(F)cccc2c1=O ... 466
O=C(O)c1cn(Cc2ccc(-c3ccc(F)cc3)cn2)c2c(F)cccc2c1=O ... 67
Cn1cc(-c2ccc(Cn3cc(C(=O)O)c(=O)c4c(F)ccc(F)c43)nc2)cn1 ... 114
O=C(O)c1cn(Cc2ncc(-c3ccccc3)cn2)c2c(F)cccc2c1=O ... 2320

(I) O=C(O)c1cn(Cc2ccc(-c3ccc4[nH]ccc4c3)nc2)c2c(F)cccc2c1=O
(II) CS(=O)(=O)c1cccc(-c2ccc(Cn3cc(C(=O)O)c(=O)c4cccc(F)c43)cn2)c1
Two entries are listed, I and II . Which one carries the higher IP? Respond using the label that marks the chosen record.
I

(P) CS(=O)(=O)c1ccccc1-c1ccc(Cn2cc(C(=O)O)c(=O)c3cccc(F)c32)nc1
(Q) CS(=O)(=O)c1cccc(-c2ccc(Cn3cc(C(=O)O)c(=O)c4cccc(F)c43)nn2)c1
Thinking about recorded IP values, which is higher, P or Q ? Reply with the label of the item you choose.
Q
(Q: 1540 nM, P: 97 nM)

(A) O=C(O)c1cn(Cc2cnc(-c3ccccc3)cn2)c2c(F)cccc2c1=O
(B) CS(=O)(=O)c1cccc(-c2ccc(Cn3cc(C(=O)O)c(=O)c4cccc(F)c43)nc2)c1
Higher IP between A and B ? // caller expects the label of the chosen entry
A
(A: 1300 nM, B: 97 nM)

Reference for the values: ChEMBL document CHEMBL1153183
